Exercise: state measured FOB (Fold Over Background) for each of the binders provided.
target: T1, cynomolgus monkey TIGIT expressed on cells (cynomolgus monkey); experiment: flow cytometry on HEK 293 cells expressing the target, MFI over parental HEK 293;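 further: bound antibody detected with PE-labelled anti-human IgG, 15 min on ice. FOB equals median fluorescence on TIGIT-positive cells divided by that on target-negative cells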
T1 construct: HEK 293 cells stably expressing cynomolgus monkey TIGIT or cynomolgus T cells; also called Cyno TIGIT HEK
T1 sequence (chain, as listed by the source limits assumed): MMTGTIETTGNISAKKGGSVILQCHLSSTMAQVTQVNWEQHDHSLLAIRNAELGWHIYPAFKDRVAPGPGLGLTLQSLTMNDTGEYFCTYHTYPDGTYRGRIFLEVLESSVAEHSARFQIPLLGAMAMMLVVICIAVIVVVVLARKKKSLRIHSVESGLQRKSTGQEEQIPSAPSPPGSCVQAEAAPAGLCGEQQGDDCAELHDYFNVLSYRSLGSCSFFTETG
Kindly provide the numeric value in fold only, without the unit symbol.

Query :: # return recorded FOB (Fold Over Background) for entry Clone 16 (antibody, V domains shown, Fully human IgG produced in yeast) VH: QVQLVQSGAEVKKPGSSVKVSCKASGGTFSSYAISWVRQAPGQGLEWMGGIIPIFGTASYAQKFQGRVTITADESTSTAYMELSSLRSEDTAVYYCARQSTWHKLYGTDVWGQGTTVTVSS VL: DIQMTQSPSSVSASVGDRVTITCRASQGISSWLAWYQQKPGKAPKLLIYAASSLQSGVPSRFSGSGSGTDFTLTISSLQPEDFATYYCQQGDSLPPTFGGGTKVEIK
Result :: 27

Query :: Please indicate FOB (Fold Over Background) recorded for Clone 16E (antibody, V domains shown) VH: QVQLVQSGAEVKKPGSSVKVSCKASGGTFSDYPISWVRQAPGQGLEWMGGIIPIVGGANYAQKFQGRVTITADESTSTAYMELSSLRSEDTAVYYCARQSTWHKVYGTDVWGQGTTVTVSS VL: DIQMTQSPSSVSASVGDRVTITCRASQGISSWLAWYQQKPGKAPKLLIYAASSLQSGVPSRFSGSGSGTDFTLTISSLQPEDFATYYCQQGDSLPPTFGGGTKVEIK
Result :: 186

Query :: Provide only the value of recorded FOB (Fold Over Background) for Clone 16C (antibody, V domains shown) VH: QVQLVQSGAEVKKPGSSVKVSCKASGGTFREYAISWVRQAPGQGLEWMGGIHPIFGTARYAQKFQGRVTITADESTSTAYMELSSLRSEDTAVYYCTRQSTWHKLYGTDVWGQGTTVTVSS VL: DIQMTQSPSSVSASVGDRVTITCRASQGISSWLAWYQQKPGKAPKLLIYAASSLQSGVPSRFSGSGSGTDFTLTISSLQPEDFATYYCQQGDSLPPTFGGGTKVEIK
Result :: 157

Cited source for all entries: patent US20230050440A1
